In this section, each of the compounds is paired with its reported growth inhibition.
- Experimental details: NCI Yeast Anticancer Drug Screen. Data for the cln2 rad14 strain (AID 165);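 further: 0% = growth equal to vehicle treated cultures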
- Condition set: S. cerevisiae cln2 rad14 strain, at 50.0 µM, stronger effect = higher value
About 79,000 compounds went through this panel and 15% of them were active in at least one assay; those are over-represented in the sample as a whole.
Give the value in % but do not write % after it.

Some solved entries appear below for comparison.
ClC12CCC(Cl)(CC1)CC2; -50.6
COc1cc2c(cc1OC)[C@H]1Cc3cc(OC)c(OC)cc3[C@@H](C2)N1C(C)=O; 22.6
CCCCCCCC/C=C\CCCCCCCC(=O)NCCN(CCN)C(=O)CCCCCCC/C=C\CCCCCCCC; -20.6

Input: Any idea what its growth inhibition is? The compound is O=C(N/C(=C/c1ccc(Cl)cc1)c1nc2ccccc2c(=O)n1Nc1ccc([N+](=O)[O-])cc1[N+](=O)[O-])c1ccccc1
Output: 0.3

Input: Would you kindly repeat that for OC(CNC1CCCCC1)(c1ccccc1)c1ccccc1 ?
Output: 10.8
